pKi: −log10 of the molar value.
Here we gather pKi data for UniProtKB P28223 reported by several publications.
Grouping rule (pKi): 0 = under 7, 1 = from 7 up to 8, 2 = 8 and over

As a guide, the following entries are already answered.
C=CCN1CCN(c2ccc3c(c2)CN(S(=O)(=O)c2cc(Cl)cc(Cl)c2)C3)CC1; 0
CN1CCN(Cc2ccc(-c3ccc4[nH]c(=O)oc4c3)o2)[C@@H](c2ccc(F)cc2)C1; 2
CC(C)(C)Oc1ccc(C(=O)N[C@H]2CC[C@H](CCN3CCN(c4nccc5c4OCC5)CC3)CC2)cc1; 1
COc1cc2c(c(-c3ccccc3F)c1OC)CN(CCc1ccccc1)CC2; 2

Data request: Hi, small favor: classify O=C(N[C@H]1CC[C@H](CCN2CCN(c3nccc4c3OCC4)CC2)CC1)C1CC1(F)F (stereo partly drawn) by its pKi when you get a moment.
Data returned: 1

Data request: Hi, small favor: classify `Cc1cc2c(s1)Nc1ccccc1N=C2N1CCN(CC(C)(C)C(=O)O)CC1` by its pKi when you get a moment.
Data returned: 0

Data request: Hi, small favor: classify `Fc1ccc(CN(Cc2cc(-c3ccc4[nH]nnc4c3)ccc2F)C2CCNCC2)cc1` by its pKi when you get a moment.
Data returned: 2

====

Here we gather Ki data for 5-hydroxytryptamine receptor 2A (Homo sapiens) reported by several publications.
Report only the number, with the unit nM understood.

CCC(C)C(=O)N[C@H]1CC[C@H](CCN2CCC(c3cccc4c3CCO4)CC2)CC1 (mixture of isomers); 64.4
Fc1ccc([C@H]2CNCCN2Cc2cc(-c3ccc4[nH]ccc4c3)ccc2F)cc1; 0.9
CN(C)CCN(Cc1ccc(F)cc1)Cc1cc(-c2ccc3[nH]ccc3c2)ccc1F; 2.37

Data request: Form field: Ki recorded for `O=c1c(N2CCNCC2)nccn1CCOc1cc(F)c(F)cc1F` with 5-hydroxytryptamine receptor 2A (Homo sapiens) (enter value)
Data returned: 2.2

Data request: Form field: Ki recorded for `CN1CCN(Cc2cc(-c3ccc4[nH]c(=O)oc4c3)ccc2F)[C@@H](c2ccc(F)cc2)C1` with 5-hydroxytryptamine receptor 2A (Homo sapiens) (enter value)
Data returned: 0.77

Data request: Form field: Ki recorded for `CN1CCN(Cc2cccc(-c3ccc4[nH]ccc4c3)c2)CC1` with 5-hydroxytryptamine receptor 2A (Homo sapiens) (enter value)
Data returned: 65

Data request: Form field: Ki recorded for `O=C(c1ccc(F)cc1)N(CCN1CCCC1)Cc1ccc(-c2ccc3[nH]ccc3c2)s1` with 5-hydroxytryptamine receptor 2A (Homo sapiens) (enter value)
Data returned: 2.14

Data request: Form field: Ki recorded for O=C(N[C@H]1CC[C@H](CCN2CCC(c3coc4ccccc34)CC2)CC1)C1CCCO1 (mixture of isomers) with 5-hydroxytryptamine receptor 2A (Homo sapiens) (enter value)
Data returned: 2.88

Data request: Form field: Ki recorded for `CN1CCC(N(Cc2ccc(F)c(-c3ccc4[nH]ccc4c3)c2)C(=O)c2ccc(F)cc2)CC1` with 5-hydroxytryptamine receptor 2A (Homo sapiens) (enter value)
Data returned: 0.58

Data request: Form field: Ki recorded for `Fc1ccc([C@H]2CNCCN2Cc2cc(-c3ccc4[nH]nnc4c3)ccc2F)cc1` with 5-hydroxytryptamine receptor 2A (Homo sapiens) (enter value)
Data returned: 0.99

Data request: Form field: Ki recorded for O=C(N[C@H]1CC[C@H](CCN2CCC(c3coc4ccccc34)CC2)CC1)C(O)C(F)(F)F (mixture of isomers) with 5-hydroxytryptamine receptor 2A (Homo sapiens) (enter value)
Data returned: 6.08

Data request: Form field: Ki recorded for O=C(N[C@H]1CC[C@H](CCN2CCN(c3nccc4c3OCC4)CC2)CC1)C1CCCO1 (mixture of isomers) with 5-hydroxytryptamine receptor 2A (Homo sapiens) (enter value)
Data returned: 20.4

Data request: Form field: Ki recorded for `CCC(=O)N[C@H]1CC[C@H](CCN2CCN(c3nccc4c3OCC4)CC2)CC1` with 5-hydroxytryptamine receptor 2A (Homo sapiens) (enter value)
Data returned: 43.3

Data request: Form field: Ki recorded for `O=C(CC(F)(F)F)N[C@H]1CC[C@H](CCN2CCN(c3nccc4c3OCC4)CC2)CC1` with 5-hydroxytryptamine receptor 2A (Homo sapiens) (enter value)
Data returned: 44.2
